- Tested on: NCI-H460
- test_method_notes: Antiproliferative activity against human NCI-H460 cells at 100 uM after 48 hrs relative to control
- Type: functional
- measurement_conditions: NCI-H460, 48 h
Readings of growth, % of control at 100 µM for the listed compounds
Form entry: value (%) — number only.

Observed growth, % of control at 100 µM on NCI-H460, entry O=C1Cc2cnn(-c3ccccc3Br)c2-c2ccccc2N1 , equals 44

Measured on NCI-H460, Cc1ccccc1-n1ncc2c1-c1ccccc1NC(=O)C2 has a documented growth, % of control at 100 µM of 49

For the compound O=C1Cc2cnn(-c3ccc(Cl)cc3)c2-c2ccccc2N1 , the measured growth, % of control at 100 µM on NCI-H460 was 41

So the reported growth, % of control at 100 µM for O=C1Cc2cnn(-c3cc(Cl)cc(Cl)c3)c2-c2ccccc2N1 , on NCI-H460, turned out to be 21

The measured growth, % of control at 100 µM that Cc1ccc(-n2ncc3c2-c2ccccc2NC(=O)C3)cc1 showed for NCI-H460 is 29

The compound O=C1Cc2cnn(-c3ccccc3F)c2-c2ccccc2N1 on NCI-H460: growth, % of control at 100 µM was 49

Lab note: compound O=C1Cc2cnn(-c3ccc([N+](=O)[O-])cc3)c2-c2ccccc2N1 tested on NCI-H460; recorded growth, % of control at 100 µM was 62

###

Recorded growth, % of control at 100 µM for the following molecules
- Tested on: SF-268
- test_method_notes: Antiproliferative activity against human SF268 cells at 100 uM after 48 hrs relative to control
- Type: functional
- measurement_conditions: SF-268, 48 h
Provide only the numeric value, understood in %.

# compound, experimental_endpoint, quantitative_readout
rows = [
    ("O=C1Cc2cnn(-c3cc(Cl)cc(Cl)c3)c2-c2ccccc2N1", "growth, % of control at 100 µM", 62),
    ("Cc1ccc(-n2ncc3c2-c2ccccc2NC(=O)C3)cc1", "growth, % of control at 100 µM", 95),
    ("O=C1Cc2cnn(-c3ccccc3)c2-c2ccccc2N1", "growth, % of control at 100 µM", 90),
    ("O=C1Cc2cnn(-c3ccc([N+](=O)[O-])cc3)c2-c2ccccc2N1", "growth, % of control at 100 µM", 62),
    ("O=C1Cc2cnn(-c3ccccc3F)c2-c2ccccc2N1", "growth, % of control at 100 µM", 98),
]

Looking up COc1ccc(-n2ncc3c2-c2ccccc2NC(=O)C3)cc1 , I found its growth, % of control at 100 µM recorded as 88

Just so you know, measured growth, % of control at 100 µM for O=C1Cc2cnn(-c3ccccc3Br)c2-c2ccccc2N1 came out at 87

###

- Test system: MDA-MB-435
- test_method_notes: Antitumor activity against human MDA-MB435 cells after 48 hrs by sulforhodamine B protein assay
- Format: functional
- measurement_conditions: MDA-MB-435, 48 h
experimental_endpoint: GI50 (nM)
# output: bare number, implied unit nM

Illustrative cases are given below, each with its answer.
# compound, system_name, experimental_endpoint, quantitative_readout
data = [
    ("Cc1ccc(-n2ncc3c2-c2ccccc2NC(=O)C3)cc1", "MDA-MB-435", "GI50", 2090),
    ("CC(C)(C)c1ccc(-n2ncc3c2-c2ccccc2NC(=O)C3)cc1", "MDA-MB-435", "GI50", 18600),
    ("O=C1Cc2cnn(-c3ccc(C(F)(F)F)cc3)c2-c2ccccc2N1", "MDA-MB-435", "GI50", 11200),
    ("O=C1Cc2cnn(-c3ccc(Br)cc3)c2-c2ccccc2N1", "MDA-MB-435", "GI50", 1910),
    ("COc1ccc(-n2ncc3c2-c2ccccc2NC(=O)C3)cc1", "MDA-MB-435", "GI50", 25),
]

# next molecule below
Please fill in: GI50 reported for COc1cccc2c1C(=O)c1c(O)c3c(c(O)c1C2=O)C[C@@](O)(C(=O)CO)C[C@@H]3O[C@H]1C[C@H](N)[C@H](O)[C@H](C)O1 = 200
